Each recorded value in this set is attributed to paper PMC11450120.

Reported Cytotoxicity MCC (minimal cytotoxic concentration) is given for each of the following compounds.
Tested on: Madin-Darby canine kidney (MDCK) cells
condition: dog
reported-property: Cytotoxicity MCC (minimal cytotoxic concentration)

# compound, target-desc, experimental-result
records = [
    ("CCC(C)(C)C1CCC2(CC1)SC(C)C(=O)N2NC(=O)c1ccc(S(N)(=O)=O)cc1OC (centres unmarked)", "Madin-Darby canine kidney (MDCK) cells", "> 100 µM"),
    ("COc1cc(S(N)(=O)=O)ccc1C(=O)NN1C(=O)C(C)SC12CCC(C)CC2 (centres unmarked)", "Madin-Darby canine kidney (MDCK) cells", "> 100 µM"),
    ("COc1cc(S(N)(=O)=O)ccc1C(=O)NN1C(=O)C(C)SC12CCC(C(C)(C)C)CC2 (centres unmarked)", "Madin-Darby canine kidney (MDCK) cells", "> 100 µM"),
    ("CC(=O)N[C@H]1[C@H]([C@H](O)[C@H](O)CO)OC(C(=O)O)=C[C@@H]1N=C(N)N [Zanamivir, reference compound]", "Madin-Darby canine kidney (MDCK) cells", "> 100 µM"),
    ("COc1cc(S(N)(=O)=O)ccc1C(=O)NN1C(=O)C(C)SC12CCCC(C)C2 (centres unmarked)", "Madin-Darby canine kidney (MDCK) cells", "> 100 µM"),
    ("CCCC1CCC2(CC1)SC(C)C(=O)N2NC(=O)c1ccc(S(N)(=O)=O)cc1OC (centres unmarked)", "Madin-Darby canine kidney (MDCK) cells", "100 µM"),
    ("COc1cc(S(N)(=O)=O)ccc1C(=O)NN1C(=O)C(C)SC12CCC(C(F)(F)F)CC2 (centres unmarked)", "Madin-Darby canine kidney (MDCK) cells", "100 µM"),
    ("COc1cc(S(N)(=O)=O)ccc1C(=O)NN1C(=O)C(C)SC12CCC(c1ccccc1)CC2 (centres unmarked)", "Madin-Darby canine kidney (MDCK) cells", "100 µM"),
]

* * *

Reported Cytotoxicity MCC (minimal cytotoxic concentration) is given for each of the following compounds.
System: Madin-Darby canine kidney (MDCK) cells
condition: dog
reported-property: Cytotoxicity MCC (minimal cytotoxic concentration)

# compound, target-desc, experimental-result
measured = [
    ("COc1cc(S(N)(=O)=O)ccc1C(=O)NN1C(=O)C(C)SC12CCC(C#N)(c1ccccc1)CC2 (stereo not drawn)", "Madin-Darby canine kidney (MDCK) cells", "> 100 µM"),
    ("CCC1CCC2(CC1)SC(C)C(=O)N2NC(=O)c1ccc(S(N)(=O)=O)cc1OC (stereo not drawn)", "Madin-Darby canine kidney (MDCK) cells", "100 µM"),
    ("COc1cc(S(N)(=O)=O)ccc1C(=O)NN1C(=O)C(C)SC12CCC(NC(C)=O)CC2 (stereo not drawn)", "Madin-Darby canine kidney (MDCK) cells", "> 100 µM"),
]
